Each entry below carries its recorded inhibition at 10 µM.
- system-tested: HDAC6 enzyme (Homo sapiens)
- Construct: transducing full length HDAC6 gene into Sf-9 insect cells; GST; purchased SignalChem; host or cells: Sf-9 insect cells
- experiment-summary: HDAC6 enzyme inhibitory activity (HDAC-Glo I/II Assay kit)
- Type: biochemical
- test-context: 10 μM; wells without enzyme = 100% inhibition; read-out: HDAC6 inhibitory rate (%) (10 μM)
Hi! Could you send only the number? It should be in %, unit omitted.

As a guide, the following entries are already answered.
{"columns": ["smiles-record", "inhibition at 10 µM, %"],
 "data": [
  ["O=C(N[C@@H]1CCCC[C@H]1N1Cc2ccc(-c3nnc(C(F)F)o3)cc2C1=O)c1cocn1", 100],
  ["CCC1(C(=O)N[C@@H]2CCCC[C@H]2N2Cc3ccc(-c4nnc(C(F)F)o4)cc3C2=O)COC1", 101],
  ["O=C(N[C@@H]1CCCC[C@H]1N1Cc2ncc(-c3nnc(C(F)F)o3)cc2C1=O)c1cccc(F)c1", 100]
]}

So the reported inhibition at 10 µM for "O=C1c2cc(-c3nnc(C(F)F)o3)ccc2CN1c1ccccc1-c1cccc(Cl)c1" , on HDAC6 enzyme (Homo sapiens), turned out to be 99

###

In this section, each of the compounds is paired with its reported HDAC6 inhibitory rate (%) (10 μM).
- system-tested: HDAC6 enzyme (Homo sapiens)
- Construct: transducing full length HDAC6 gene into Sf-9 insect cells; GST; purchased SignalChem; host or cells: Sf-9 insect cells
- Sequence (Q9UBN7 1-1215): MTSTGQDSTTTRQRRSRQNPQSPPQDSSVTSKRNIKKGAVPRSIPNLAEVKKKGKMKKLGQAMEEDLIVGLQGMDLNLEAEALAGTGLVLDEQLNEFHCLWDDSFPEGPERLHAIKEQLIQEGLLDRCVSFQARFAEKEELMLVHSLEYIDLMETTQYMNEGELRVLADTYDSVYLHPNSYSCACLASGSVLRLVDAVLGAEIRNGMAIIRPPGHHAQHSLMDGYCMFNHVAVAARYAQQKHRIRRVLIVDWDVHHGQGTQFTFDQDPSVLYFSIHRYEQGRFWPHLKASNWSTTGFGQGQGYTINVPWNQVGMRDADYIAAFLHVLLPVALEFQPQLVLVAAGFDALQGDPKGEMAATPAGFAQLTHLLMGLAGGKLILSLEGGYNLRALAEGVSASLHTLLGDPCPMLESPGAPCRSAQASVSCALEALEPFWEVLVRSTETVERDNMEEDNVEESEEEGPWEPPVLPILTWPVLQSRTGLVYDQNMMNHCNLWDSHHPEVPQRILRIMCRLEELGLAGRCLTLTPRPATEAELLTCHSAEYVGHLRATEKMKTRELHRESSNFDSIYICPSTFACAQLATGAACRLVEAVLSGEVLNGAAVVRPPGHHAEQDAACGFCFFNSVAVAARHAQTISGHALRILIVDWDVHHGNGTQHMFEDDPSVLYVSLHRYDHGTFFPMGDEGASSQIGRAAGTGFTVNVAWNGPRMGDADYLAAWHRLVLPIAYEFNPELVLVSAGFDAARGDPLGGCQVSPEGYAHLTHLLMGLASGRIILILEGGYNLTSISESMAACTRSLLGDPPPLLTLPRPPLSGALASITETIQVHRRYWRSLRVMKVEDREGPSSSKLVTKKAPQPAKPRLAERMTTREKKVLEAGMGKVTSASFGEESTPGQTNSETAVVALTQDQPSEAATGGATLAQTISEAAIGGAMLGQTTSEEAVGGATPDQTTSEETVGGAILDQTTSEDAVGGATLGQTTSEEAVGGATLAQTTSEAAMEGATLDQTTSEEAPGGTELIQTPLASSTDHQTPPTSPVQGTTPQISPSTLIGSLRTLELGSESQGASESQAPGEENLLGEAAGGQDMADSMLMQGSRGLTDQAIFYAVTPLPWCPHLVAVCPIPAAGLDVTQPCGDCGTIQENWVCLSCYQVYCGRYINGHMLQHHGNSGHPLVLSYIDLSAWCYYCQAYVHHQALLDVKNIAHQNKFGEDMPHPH
- experiment-summary: HDAC6 enzyme inhibitory activity (HDAC-Glo I/II Assay kit)
- Format: biochemical
- test-context: 10 μM; wells without enzyme = 100% inhibition
Write the value in % as a bare number.

Consider the following illustrative entries.
{"columns": ["compound", "value-reported"],
 "data": [
  ["O=C1c2cc(-c3nnc(C(F)F)o3)cnc2CN1[C@@H]1CCCC[C@H]1c1ccccn1 (relative stereo)", 100],
  ["O=C1c2cc(-c3nnc(C(F)F)o3)ccc2CN1[C@@H]1CCCC[C@H]1n1cccn1 (relative stereo)", 100],
  ["O=C1c2cc(-c3nnc(C(F)F)o3)ccc2CN1N1CCC(F)(F)CC1c1ccc(F)cc1 (centres unmarked) [Example 573]", 99],
  ["O=C1c2cc(-c3nnc(C(F)F)o3)cnc2CN1[C@@H]1CCCC[C@H]1NC(=O)C(F)(F)C(F)(F)F", 99],
  ["O=C1c2cc(-c3nnc(C(F)F)o3)cnc2CN1[C@@H]1COCC[C@H]1Oc1c(F)cccc1F", 100]
]}

HDAC6 inhibitory rate (%) (10 μM) measured on Cc1ccc(C2CC(F)(F)CCN2N2Cc3ccc(-c4nnc(C(F)F)o4)cc3C2=O)nc1 (centres unmarked) [Example 614] = 99

// sample O=C1c2cc(-c3nnc(C(F)F)o3)ccc2CN1N1CCC(F)(F)CC1c1ccc(F)cn1 (centres unmarked) [Example 612] , its HDAC6 inhibitory rate (%) (10 μM) was 99

The value of HDAC6 inhibitory rate (%) (10 μM) measured for the compound O=C1c2cc(-c3nnc(C(F)F)o3)ccc2CN1N1CCCC1c1ccccn1 (centres unmarked) [Example 596] turned out to be 100

###

- system-tested: HDAC6 enzyme (Homo sapiens, UniProt Q9UBN7)
- Construct: transducing full length HDAC6 gene into Sf-9 insect cells; GST; purchased SignalChem; host or cells: Sf-9 insect cells
- experiment-summary: HDAC6 enzyme inhibitory activity (HDAC-Glo I/II Assay kit)
- Assay type: biochemical
- test-context: 10 μM; wells without enzyme = 100% inhibition; read-out: HDAC6 inhibitory rate (%) (10 μM)
attribute-measured: inhibition at 10 µM (%)
The response must be a number in % with no trailing unit.

{"columns": ["compound", "system-tested", "attribute-measured", "value-reported"],
 "data": [
  ["O=C1c2cc(-c3nnc(C(F)F)o3)ccc2CN1c1ccc(F)cc1-n1cc(Br)cn1", "HDAC6 enzyme (Homo sapiens, UniProt Q9UBN7)", "inhibition at 10 µM", 100],
  ["O=C1c2cc(-c3nnc(C(F)F)o3)ccc2CN1[C@@H]1CCCC[C@H]1c1ncco1 (racemic)", "HDAC6 enzyme (Homo sapiens, UniProt Q9UBN7)", "inhibition at 10 µM", 100],
  ["N[C@H]1CCCC[C@H]1N1Cc2ccc(-c3nnc(C(F)F)o3)cc2C1=O", "HDAC6 enzyme (Homo sapiens, UniProt Q9UBN7)", "inhibition at 10 µM", 91]
]}

// field: inhibition at 10 µM; key: O=C1c2cc(-c3nnc(C(F)F)o3)ccc2CN1N1CCC(F)(F)CC1c1ccc(F)cn1 (stereo not shown) ; value = 100

Entry under test: "O=C1c2cc(-c3nnc(C(F)F)o3)cc(F)c2CN1C[C@@H]1CCCN1" . Its inhibition at 10 µM was 86

Record "O=C1c2cc(-c3nnc(C(F)F)o3)ccc2CN1c1ccc(F)cc1-n1cc(Cl)cn1" , field inhibition at 10 µM: 98

###

Examples of compounds with documented inhibition at 10 µM follow.
- system-tested: HDAC6 enzyme (Homo sapiens, UniProt Q9UBN7)
- Construct: transducing full length HDAC6 gene into Sf-9 insect cells; GST; purchased SignalChem; host or cells: Sf-9 insect cells
- experiment-summary: HDAC6 enzyme inhibitory activity (HDAC-Glo I/II Assay kit)
- Assay type: biochemical
- test-context: 10 μM; wells without enzyme = 100% inhibition; read-out: HDAC6 inhibitory rate (%) (10 μM)
In your response, the unit should come after the numeric value.

Example entries begin here.
{"columns": ["compound", "attribute-measured", "value-reported"],
 "data": [
  ["Cn1cccc1CN1Cc2ncc(-c3nnc(C(F)F)o3)cc2C1=O", "inhibition at 10 µM", "97%"],
  ["COc1cccc(-c2cn(C)nc2N2Cc3ccc(-c4nnc(C(F)F)o4)cc3C2=O)c1", "inhibition at 10 µM", "100%"],
  ["O=C1c2cc(-c3nnc(C(F)F)o3)cc(F)c2CN1c1ccccc1-c1cccc(F)c1", "inhibition at 10 µM", "99%"]
]}

The record that follows has no inhibition at 10 µM shown yet.
// field: inhibition at 10 µM; key: O=C1c2cc(-c3nnc(C(F)F)o3)cnc2CN1[C@@H]1CCCC[C@H]1Oc1ccc(F)cc1 (relative stereo) [Example 551] ; value = 99%

###

- system-tested: HDAC6 enzyme (Homo sapiens)
- Construct: transducing full length HDAC6 gene into Sf-9 insect cells; GST; purchased SignalChem; host or cells: Sf-9 insect cells
- experiment-summary: HDAC6 enzyme inhibitory activity (HDAC-Glo I/II Assay kit)
- Type: biochemical
- test-context: 10 μM; wells without enzyme = 100% inhibition; read-out: HDAC6 inhibitory rate (%) (10 μM)
attribute-measured: inhibition at 10 µM (%)
Please state the figure in %; there is no need to write the unit.

Before answering, review these 2 worked examples.
{"columns": ["smiles-record", "system-tested", "inhibition at 10 µM / %"],
 "data": [
  ["O=C1c2cc(-c3nnc(C(F)F)o3)cnc2CN1Cc1ccccc1OC(F)(F)F", "HDAC6 enzyme (Homo sapiens)", 101],
  ["O=C1c2cc(-c3nnc(C(F)F)o3)ccc2CN1[C@@H]1CCCC[C@H]1NC(=O)C1(F)CCC1", "HDAC6 enzyme (Homo sapiens)", 100]
]}

Please fill in: inhibition at 10 µM reported for "Cn1cc(C2CCC(F)(F)CC2)c(N2Cc3ccc(-c4nnc(C(F)F)o4)cc3C2=O)n1" = 101

The molecule "C[C@H](c1ccc(F)cc1)N1Cc2ncc(-c3nnc(C(F)F)o3)cc2C1=O" showed inhibition at 10 µM equal to 100
